Recorded 100 nM Ag Bound by entry
# target-of-assay: T1, Mouse IL2Rγ extracellular domain expressed with a C-terminal myc-myc-hexahistidine tag (mouse)
# T1 construct: whole entry is the tagged construct; also called mIL-2Rg-MMH
# T1 chain: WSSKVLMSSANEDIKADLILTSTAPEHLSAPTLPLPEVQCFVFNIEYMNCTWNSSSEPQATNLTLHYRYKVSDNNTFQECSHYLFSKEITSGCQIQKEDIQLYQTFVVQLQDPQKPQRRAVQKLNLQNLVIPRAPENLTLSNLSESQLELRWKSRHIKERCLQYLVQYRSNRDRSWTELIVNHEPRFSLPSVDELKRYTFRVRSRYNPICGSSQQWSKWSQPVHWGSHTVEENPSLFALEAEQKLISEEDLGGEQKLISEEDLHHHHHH
# test-details: SPR Biacore 4000, anti-hFc-captured mAb, 37 C
recorded-metric: 100 nM Ag Bound (RU)

- binder: "H4H12889P (antibody, human IgG4 S228P, kappa, V domains shown, fully human anti-IL2Rgamma mAb, human IgG4 Fc; also called REGN7257) VH: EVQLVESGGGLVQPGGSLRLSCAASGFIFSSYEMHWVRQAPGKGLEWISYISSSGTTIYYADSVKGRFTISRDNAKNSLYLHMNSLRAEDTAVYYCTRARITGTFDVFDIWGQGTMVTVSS VL: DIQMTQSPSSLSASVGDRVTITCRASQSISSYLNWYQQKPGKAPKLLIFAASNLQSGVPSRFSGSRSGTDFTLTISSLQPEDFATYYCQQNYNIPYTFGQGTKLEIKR"
  unit-of-measurement: "RU"
  value-observed: 0
- binder: "H4H13538P (antibody, human IgG4 S228P, kappa, V domains shown, fully human anti-IL2Rgamma mAb, human IgG4 Fc) VH: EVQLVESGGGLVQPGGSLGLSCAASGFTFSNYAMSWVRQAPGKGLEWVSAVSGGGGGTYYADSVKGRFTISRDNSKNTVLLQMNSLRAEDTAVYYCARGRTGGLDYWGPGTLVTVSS VL: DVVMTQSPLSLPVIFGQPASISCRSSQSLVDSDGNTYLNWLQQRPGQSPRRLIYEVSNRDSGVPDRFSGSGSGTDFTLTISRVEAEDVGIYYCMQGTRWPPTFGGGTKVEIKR"
  unit-of-measurement: "RU"
  value-observed: 5
- binder: "H4H12863P (antibody, human IgG4 S228P, kappa, V domains shown, fully human anti-IL2Rgamma mAb, human IgG4 Fc) VH: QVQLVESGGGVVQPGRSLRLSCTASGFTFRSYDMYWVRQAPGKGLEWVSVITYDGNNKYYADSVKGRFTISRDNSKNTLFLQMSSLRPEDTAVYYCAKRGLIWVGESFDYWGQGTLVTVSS VL: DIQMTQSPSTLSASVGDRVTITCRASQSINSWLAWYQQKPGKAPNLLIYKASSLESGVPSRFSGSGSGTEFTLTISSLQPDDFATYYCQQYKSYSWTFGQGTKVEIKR"
  unit-of-measurement: "RU"
  value-observed: 0
